Data origin, for the record: PubChem BioAssay (NCI)

Exercise: state measured TGI for each of the molecules provided.
System: ACHN renal
Experiment: NCI tumour cell line growth inhibition, 48 h

>  <molecule>
COc1ccccc1-c1cc(=O)c2cc3c(cc2[nH]1)OCO3

>  <TGI>
> 100 µM

$$$$
>  <molecule>
C=C(CCC/C(C)=C/C=C/[C@@H](C)CCCc1ccoc1)C[C@@H]1OC(=O)[C@H](C)[C@@H]1O

>  <TGI>
16.2 µM

$$$$
>  <molecule>
Cc1cc(N2CCOCC2)nc(N[C@@H]2CCC[C@H](Nc3ccnc4cc(Cl)ccc34)C2)n1

>  <TGI>
3.91 µM

$$$$

Your task in this section: give TGI for each listed record.
1. O=c1ncc(F)cn1C1OC(CO)C(O)C1O (centres undefined)
2. C/C=C(\C)C(O)C(C)C(O)C/C=C(C)/C=C(\C)C/C(C)=C/C/C=C(\C)C(O)C(C)c1ccc(CCC)c(=O)o1 (centres undefined)
3. CC(C)C(=O)Nc1cc(C(F)(F)F)ccc1[N+](=O)[O-]
4. CC(=O)OC(C)(C)/C(C)=C/C(=O)O[C@H]1C(=O)O[C@@H]2C[C@H]3[C@H](C)C(=O)C(O[C@@H]4O[C@H](CO)[C@@H](O)[C@H](O)[C@H]4O)=C[C@]3(C)[C@H]3[C@@H](O)[C@H](O)[C@@]4(C(=O)O)OC[C@]32[C@@H]14
5. C=CCN(C(=O)OC(C)(C)C)[C@H](C)C(=O)N[C@@H](C)C(=O)OC

Ans:
1: > 100 µM; 2: 53.2 µM; 3: > 100 µM; 4: > 100 µM; 5: > 100 µM

Your task in this section: give TGI for each listed record.
1. Nc1c(C(=O)Nc2cccc(F)c2)sc2nc3c(cc12)C(=O)CCC3
2. COc1cc(C2SCC(=O)N2c2ncc(C)s2)cc(OC)c1OC (centres undefined)
3. CC(=O)Nc1c(C)cc2c(nc3n2CCC3OC(C)=O)c1[N+](=O)[O-] (centres undefined)
4. COC(=O)c1cc(C(=CCC[C@H]2CC[C@@]3(C)C(CCC4C3CC[C@@]3(C)C4CC[C@@H]3C(C)CCCC(C)C)C2)c2cc(Cl)c(O)c(C(=O)OC)c2)cc(Cl)c1O (some centres undefined)
5. N=c1ccn(O)cc1/C=C1/C(=O)Nc2ccccc21

Ans:
["> 100 µM", "> 50 µM", "> 100 µM", "> 10 µM", "> 100 µM"]

Your task in this section: give TGI for each listed record.
1. COC(=O)C(C(=O)OC)C1CCCC(=O)C1 (centres undefined)
2. C[C@@]12CCC[C@@](C)(C(=O)O)C1CC[C@]13C[C@@](O)(CO)[C@](O)(CCC12)C3 (some centres undefined)
3. O=C1c2ccccc2-c2nnc3c(c21)-c1ccccc1C3
4. Cc1cc(/C=C/c2cc[n+](C)c3ccccc23)c(O)c2ncccc12
5. CC(C)([NH-])CO.CC(C)([NH-])CO.[Cl][Cd][Cl]

Ans:
1. > 100 µM
2. > 100 µM
3. 84.6 µM
4. 16.4 µM
5. > 100 µM

# NC(=O)NCCCC(NC(=O)OCCCCCCn1ccc(=O)[nH]c1=O)C(=O)O (centres undefined) with ACHN renal: TGI is > 100 µM
